# Test system: Saccharomyces cerevisiae
# assayRemarks: protein stability index of tFT-peptide fusion (C-terminal peptide) (PSI (0-1 scale)); higher = more stable (slower turnover)
# appliedConditions: genetic background: wild type; temperature: 30 C
Assign protein stability index to each entry below.
One number for each entry.

Examples with their reported protein stability index follow.
Problem: Requested read-out: protein stability index. Entry: VPPPRLCPERPH
Solution: 0.719

Problem: Requested read-out: protein stability index. Entry: GGWPLSPSFGWG
Solution: 0.571

Problem: Requested read-out: protein stability index. Entry: PFYLPPSTPPLL
Solution: 0.739

Problem: Requested read-out: protein stability index. Entry: AVVGCGGGWWWA
Solution: 0.715

Your task in this section: give protein stability index for each listed record.
1. PPPPLPLPPFSP
2. SFSPSVLSREVS
3. GEGGGLRARQKP
4. GVGHAWHYFCVC
5. SGAADGDADRHP
6. KTTKEKESQEKN

Solution:
0.802
0.66
0.673
0.357
0.721
0.723

Your task in this section: give protein stability index for each listed record.
1. SRLLPPLPPLSP
2. GCADNNRLGNVV
3. WISAPTDRNITN
4. RGVETGRGREKE
5. SGAGGGGWWGGV
6. VLKVFIRERRVR
7. PPVTAPPPPLRS
8. RKFGQRQKRECN

Solution:
1. 0.767
2. 0.66
3. 0.713
4. 0.643
5. 0.731
6. 0.703
7. 0.692
8. 0.709

Problem: Requested read-out: protein stability index. Entry: RREDWQEKRYGL
Solution: 0.761

---

# System: Saccharomyces cerevisiae
# assayRemarks: protein stability index of tFT-peptide fusion (C-terminal peptide) (PSI (0-1 scale)); higher = more stable (slower turnover)
# appliedConditions: genetic background: wild type; temperature: 30 C
Assign protein stability index to each entry below.
Give bare numbers.

Problem: Requested read-out: protein stability index. Entry: STLSSRLSLPYR
Solution: 0.728

Problem: Requested read-out: protein stability index. Entry: IDSWWLPSDLKV
Solution: 0.835

Problem: Requested read-out: protein stability index. Entry: EHGEFLEGARGV
Solution: 0.645

Your task in this section: give protein stability index for each listed record.
1. RLFTLVPIGPFM
2. ETNKEDKGKKSI
3. CKKATILRIKSM
4. RGSVDGTLQKPG
5. SHPPPPPSPPPR
6. PPAPPPVSPPRP
7. VGEIMREVKGPD
8. LNWISKQVTEKH

Solution:
[0.704, 0.658, 0.304, 0.669, 0.692, 0.708, 0.72, 0.676]

---

# Tested on: Saccharomyces cerevisiae;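 also: PSI is a weighted mean of sequencing reads over stability bins, variants kept only with over 10 reads, mCherry proximal and sfGFP distal, peptide attached via GGGS linker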
# assayRemarks: protein stability index of tFT-peptide fusion (C-terminal peptide) (PSI (0-1 scale)); higher = more stable (slower turnover)
# appliedConditions: genetic background: wild type; temperature: 30 C
protein stability index vs 0.7: at or above is true (1), below is false (0).

Example entries and their recorded answers appear below.
Problem: In plain terms: is recorded protein stability index at least 0.7 for GVVFGWAGYKGT ?
Solution: false (0)

Problem: In plain terms: is recorded protein stability index at least 0.7 for SNKDLELVSTVC ?
Solution: false (0)

Problem: In plain terms: is recorded protein stability index at least 0.7 for VVLGQGRGVGAM ?
Solution: false (0)

Problem: In plain terms: is recorded protein stability index at least 0.7 for KKKKGNKKRREK ?
Solution: true (1)

Continuing:
Problem: In plain terms: is recorded protein stability index at least 0.7 for IKKLNTYIKRNV ?
Solution: false (0)

Problem: In plain terms: is recorded protein stability index at least 0.7 for AEKSYRYIYGKT ?
Solution: false (0)

Problem: In plain terms: is recorded protein stability index at least 0.7 for VEGISKMTRINP ?
Solution: true (1)

Problem: In plain terms: is recorded protein stability index at least 0.7 for WVSAMGIPRVVG ?
Solution: false (0)

Problem: In plain terms: is recorded protein stability index at least 0.7 for IWRGGSAVPMIC ?
Solution: false (0)
